# Measured target: T1, recombinant human MASP1 active protease (amino acids 297-699, C-terminal His Tag) (human, UniProt P48740 297-699)
# T1 sequence: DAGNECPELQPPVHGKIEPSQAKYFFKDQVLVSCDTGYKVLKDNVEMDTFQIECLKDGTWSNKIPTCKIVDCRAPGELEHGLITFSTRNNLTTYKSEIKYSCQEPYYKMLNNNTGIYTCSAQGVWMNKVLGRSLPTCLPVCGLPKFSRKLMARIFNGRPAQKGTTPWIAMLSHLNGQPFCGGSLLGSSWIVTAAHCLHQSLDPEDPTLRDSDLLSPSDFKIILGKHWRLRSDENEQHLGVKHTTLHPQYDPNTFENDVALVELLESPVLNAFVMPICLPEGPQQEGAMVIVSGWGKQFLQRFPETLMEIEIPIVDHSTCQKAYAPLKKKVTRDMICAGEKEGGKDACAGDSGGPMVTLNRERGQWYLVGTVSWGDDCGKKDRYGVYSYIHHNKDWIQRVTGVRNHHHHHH
# Protocol summary: cell-based or functional assay
Numbered stars: 1 amine (or outer) side, 2 acyl side, 3 side chain; on linkers, the order of the positions; unused ones are H or OH. Bridge positions count the residues as written; N and C are the ends. Square brackets hold non-standard residues; d marks the D form. Ends that are not written are not given here. * marks the point of attachment. Ida = iminodiacetic acid, O=C(CN(CC(=O)[*:3])[*:1])[*:2]; Oic = O=C(O)[C@@H]1C[C@@H]2CCCC[C@@H]2N1; Cyclopropanecarbonyl = O=C(C1CC1)*; tBuAla = CC(C)(C)C[C@H](N)C(=O)O; Pen = CC(C)(S)[C@H](N)C(=O)O; NMeC = CN[C@@H](CS)C(=O)O; Nva = CCC[C@H](N)C(=O)O; Sar = CNCC(=O)O
Labelling: human MASP1 IC50 reported below 40 nM becomes YES; at or above becomes NO.

# Binder, Assigned category
records = [
    ("[Sar]ICSRSLPPICI[dP]D-OH (disulfide 3-11; N-terminus assumed; SMILES CC[C@H](C)[C@H](NC(=O)CNC)C(=O)N[C@H]1CSSC[C@@H](C(=O)N[C@H](C(=O)N2CCC[C@@H]2C(=O)N[C@@H](CC(=O)O)C(=O)O)[C@@H](C)CC)NC(=O)[C@H]([C@@H](C)CC)NC(=O)[C@@H]2CCCN2C(=O)[C@@H]2CCCN2C(=O)[C@H](CC(C)C)NC(=O)[C@H](CO)NC(=O)[C@H](CCCNC(=N)N)NC(=O)[C@H](CO)NC1=O) [Example 386: ((N-Me)G)-IC+SRSLPPIC+IpD-OH]", "NO"),
    ("PPICSRS[tBuAla]PPI[Pen]IP-NH2 (disulfide 4-12; N-terminus assumed; SMILES CC[C@H](C)[C@H](NC(=O)[C@@H]1CCCN1C(=O)[C@@H]1CCCN1)C(=O)N[C@H]1CSSC(C)(C)[C@@H](C(=O)N[C@H](C(=O)N2CCC[C@H]2C(N)=O)[C@@H](C)CC)NC(=O)[C@H]([C@@H](C)CC)NC(=O)[C@@H]2CCCN2C(=O)[C@@H]2CCCN2C(=O)[C@H](CC(C)(C)C)NC(=O)[C@H](CO)NC(=O)[C@H](CCCNC(=N)N)NC(=O)[C@H](CO)NC1=O) [Example 378: PPIC+SRS-((tBu)A)-PPI-(Pen)+IP-NH2]", "YES"),
    ("Cyclopropanecarbonyl-ICSRS[tBuAla]PPI[NMeC]I-NH2 (disulfide 2-10; SMILES CC[C@H](C)[C@H](NC(=O)[C@@H]1CSSC[C@H](NC(=O)[C@@H](NC(=O)C2CC2)[C@@H](C)CC)C(=O)N[C@@H](CO)C(=O)N[C@@H](CCCNC(=N)N)C(=O)N[C@@H](CO)C(=O)N[C@@H](CC(C)(C)C)C(=O)N2CCC[C@H]2C(=O)N2CCC[C@H]2C(=O)N[C@@H]([C@@H](C)CC)C(=O)N1C)C(N)=O) [Example 353: (Cyclopropanecarboxylic)-IC+SRS-((tBu)A)-PPI-((N-Me)C)+I-NH2]", "YES"),
    ("[Sar]ICRRS[tBuAla]PP[Nva][Pen]IP-NH2 (disulfide 3-11; N-terminus assumed; SMILES CCC[C@@H]1NC(=O)[C@@H]2CCCN2C(=O)[C@@H]2CCCN2C(=O)[C@H](CC(C)(C)C)NC(=O)[C@H](CO)NC(=O)[C@H](CCCNC(=N)N)NC(=O)[C@H](CCCNC(=N)N)NC(=O)[C@@H](NC(=O)[C@@H](NC(=O)CNC)[C@@H](C)CC)CSSC(C)(C)[C@@H](C(=O)N[C@H](C(=O)N2CCC[C@H]2C(N)=O)[C@@H](C)CC)NC1=O) [Example 448: ((N-Me)G)-IC+RRS-((tBu)A)-PP-(Nva)-(Pen)+IP-NH2]", "NO"),
]

Q) Find out if reported human MASP1 IC50 for [Sar]ICSRSLP[Oic]I[Pen]IP[Ida]-OH (disulfide 3-11) [Example 446: ((N-Me)G)-IC+SRSLP-(Oic)-I-(Pen)+IP-(Ida)-OH] is less than 40 nM
A) YES
